- System under test: T1, CD134 expressed on the cell surface of HT1080_OX40 cells (human, UniProt P43489 29-277); note: test concentration or dose not given here
- T1 sequence (looked up): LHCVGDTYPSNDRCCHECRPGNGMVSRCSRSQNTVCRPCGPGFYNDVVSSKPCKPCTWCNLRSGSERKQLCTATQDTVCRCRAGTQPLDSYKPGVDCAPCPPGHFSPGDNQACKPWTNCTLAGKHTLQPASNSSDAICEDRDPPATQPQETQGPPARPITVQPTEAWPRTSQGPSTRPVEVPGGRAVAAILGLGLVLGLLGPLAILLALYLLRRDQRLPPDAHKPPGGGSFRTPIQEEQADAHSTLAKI
- Assay comment: cell-based or functional assay
Assay readout: Functional assay IL-8

Here is how some binders turned out for Functional assay IL-8.
INSERT INTO measurements (binder, result) VALUES
  ('P018.S.12.A.D06 (antibody, V domains shown, V regions on human Ig constant parts; also called AB134_71) VH: QSVEESGGRLVTPGTPLTLTCTVSGFSLSSYDMSWVRQAPGKGLEWIGIIYVSGTTDYASWAKGRFTISKTSTTVDLKMTSLTTEDTATYFCARDIYVDEIGCFDLWGQGTLVTVSS VL: DILMTQTPASVEVAVGGTVTIKCQASQNIRTYLAWYQQKPGQPPKLLIYRASTLESGVPSRFKGSGSGIEFSLTISDLESADAATYYCQNYDGGSSTGFGGGTEVVVK', '0.832 abs. corr.'),
  ('P018.S.04.A.C06 (antibody, V domains shown, V regions on human Ig constant parts; also called AB134_8) VH: QSVEESGGRLVTPGTPQTLTCTVSGFSLSSYAMSWVRQAPGKGLEWIGIISSSGSTYYASWAKGRFTISKTSTTVDLKITSPTTEDTATYFCARDAYPSYSPFGYYFTLWGQGTLVTVSS VL: AIKMTQTPASVSAAVGGTVSINCQASEDIYNYLAWYQQKPGQPPKLLIYDASDLASGVPSRFKGSGSGKQFTLTISGVQSDDAATYYCQHGYFTYSGENAFGGGTEVVVK', '0.538 abs. corr.'),
  ('P018.S.11.A.E06 (antibody, V domains shown, V regions on human Ig constant parts; also called AB134_37) VH: QSVEESGGRLVTPGTPLTLTCTASGFSLSSYYMSWVRQAPGKGLEWIGIIDTGSGDTWYATWAKGRFTISKTSTTVDLKMTSLTTEDTATYFCARVNPEFAHVWPYYFDLWGQGTLVTVSS VL: ALVMTQTPASVEVAVGGTVTIKCQASQSISSNFLSWYQQNPGQPPKLLIDRASTLESGVPSRFKGSGSGTEFTLTISDLESADAATYYCQQGDSLSNVENAFGGGTELVVK', '0.278 abs. corr.');

Inquiry: Entry P018.S.12.A.A02 (antibody, V domains shown, V regions on human Ig constant parts; also called AB134_51) VH: QSLEESGGRLVTPGTPLTLTCTASGFSLSTYYMTWVRQAPGKGLEWIGDIYVRGGARYANWAKGRFTISRTSTTVDLRITSPTTEDTATYFCAREGLSLWGQGTLVTVSS VL: AQVLTQTASPVSAAVGGTVTINCQSSQSVYKNNRLAWYQQKPGQPPKLLIYETSKLESGVSSRFKGSGSGTQFTLTISGVQSDDAATYYCLGGYDCGSADCNAFGGGTEVVVK has what Functional assay IL-8?
Reply text: 0.145 abs. corr.

Inquiry: Now try P018.S.12.A.B03 (antibody, V domains shown, V regions on human Ig constant parts; also called AB134_58) VH: QSLEESGGRLVTPGTPLTLICTVSGIDLSSGAMGWVRQAPGKGLEYIGYIYTGSGTTSYASWVNGRFTISMTSTTVDLKITSPTTEDTATYFCARDAASSYWGHFTLWGQGTLVTVSS VL: DIVMTQTPASVEAAVGGTVTIKCQASENIYSSLAWYQQKPGQPPKLLIYRTSTLASGVPSRFKGSGSGTQFTLTISDLESDDAATYYCQSYYHNSGGGYDYGFGGGTEVVAK .
Reply text: 1.07 abs. corr.
